Listed here are compounds together with their documented pIC50.
Molecular target: GST-β-catenin (Homo sapiens)
Construct: Expression and purification of GST-β-catenin has been reported previously; made in house
Sequence (P35222 whole entry): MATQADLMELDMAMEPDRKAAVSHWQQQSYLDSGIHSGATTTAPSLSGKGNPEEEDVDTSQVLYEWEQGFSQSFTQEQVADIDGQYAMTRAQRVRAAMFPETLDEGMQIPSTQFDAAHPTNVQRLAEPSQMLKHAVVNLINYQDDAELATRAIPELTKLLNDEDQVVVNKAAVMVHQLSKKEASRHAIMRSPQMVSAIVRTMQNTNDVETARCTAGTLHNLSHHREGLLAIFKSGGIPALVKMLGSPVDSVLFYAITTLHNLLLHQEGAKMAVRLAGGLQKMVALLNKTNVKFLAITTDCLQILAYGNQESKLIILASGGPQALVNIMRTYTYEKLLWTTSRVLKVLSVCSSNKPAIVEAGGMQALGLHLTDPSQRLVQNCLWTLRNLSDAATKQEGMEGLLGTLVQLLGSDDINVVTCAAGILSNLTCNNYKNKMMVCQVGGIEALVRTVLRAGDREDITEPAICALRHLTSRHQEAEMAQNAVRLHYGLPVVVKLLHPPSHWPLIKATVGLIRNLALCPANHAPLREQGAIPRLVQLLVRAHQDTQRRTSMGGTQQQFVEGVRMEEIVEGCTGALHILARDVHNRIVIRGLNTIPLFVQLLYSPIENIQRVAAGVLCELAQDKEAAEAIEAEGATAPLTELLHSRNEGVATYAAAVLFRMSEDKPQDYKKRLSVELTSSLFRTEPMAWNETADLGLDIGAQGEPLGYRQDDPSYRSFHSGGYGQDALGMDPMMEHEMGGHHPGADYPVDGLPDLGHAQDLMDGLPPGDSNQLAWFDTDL
Test: Competitive fluorescence polarization (FP)-based binding assay against β-catenin
Experimental: The in vitro IC50 of the predicted peptides against β-catenin was measured through a fluorescence polarization (FP)-based binding assay. Expression and purification of GST-β-catenin has been reported previously. […] Samples were transferred into black-on-black 384-well nonbinding microplates (Greiner), and FP was measured using a Tecan M1000 Infinite plate reader. The data were analyzed using GraphPad Prism v. […] Supplementary Figure 4: Competition for binding to β-catenin by various peptides as monitored […]
Bridge positions count the residues as written; N and C are the ends. Peptide text beside a SMILES is read from it.
Please keep in mind that pIC50 is minus log10 of the molar concentration; only the number is needed.

1) CC[C@H](C)[C@@H]1NC(=O)[C@@H](NC(=O)[C@H](CCC(=O)O)NC(=O)[C@@H]2CCCN2C(=O)[C@H](Cc2ccc(O)cc2)NC(C)=O)CC(=O)NCCCC[C@@H](C(=O)N[C@@H](Cc2c[nH]cn2)C(=O)N[C@@H](CC(C)C)C(=O)N[C@@H](CCC(N)=O)C(=O)N[C@@H](CCCNC(=N)N)C(=O)N[C@H](C(=O)N[C@@H](C)C(=O)N[C@@H](CC(C)C)C(N)=O)C(C)C)NC(=O)[C@H](CC(=O)O)NC(=O)[C@H](CC(C)C)NC1=O [Peptide 14] (Ac-YPEDILDKHLQRVAL-NH2; lactam 4-8): 6.96

Okay, now this compound:
Reported pIC50 for CC[C@H](C)[C@@H]1NC(=O)[C@@H](NC(=O)[C@H](CCC(=O)O)NC(=O)[C@@H]2CCCN2C(=O)[C@H](Cc2ccc(O)cc2)NC(=O)CNC(=O)CNC(C)=O)CC(=O)NCCCC[C@@H](C(=O)N[C@@H](Cc2c[nH]cn2)C(=O)N[C@@H](CC(C)C)C(=O)N[C@@H](CCC(N)=O)C(=O)N[C@@H](CCCNC(=N)N)C(=O)N[C@H](C(N)=O)C(C)C)NC(=O)[C@H](CC(=O)O)NC(=O)[C@H](CC(C)C)NC1=O [Peptide 11] (Ac-GGYPEDILDKHLQRV-NH2; lactam 6-10) : what is it?
5.82
